Assign pIC50 to each entry below.
Biological target: HDAC1 (Homo sapiens, UniProt Q13547)
Sequence (Q13547 whole entry): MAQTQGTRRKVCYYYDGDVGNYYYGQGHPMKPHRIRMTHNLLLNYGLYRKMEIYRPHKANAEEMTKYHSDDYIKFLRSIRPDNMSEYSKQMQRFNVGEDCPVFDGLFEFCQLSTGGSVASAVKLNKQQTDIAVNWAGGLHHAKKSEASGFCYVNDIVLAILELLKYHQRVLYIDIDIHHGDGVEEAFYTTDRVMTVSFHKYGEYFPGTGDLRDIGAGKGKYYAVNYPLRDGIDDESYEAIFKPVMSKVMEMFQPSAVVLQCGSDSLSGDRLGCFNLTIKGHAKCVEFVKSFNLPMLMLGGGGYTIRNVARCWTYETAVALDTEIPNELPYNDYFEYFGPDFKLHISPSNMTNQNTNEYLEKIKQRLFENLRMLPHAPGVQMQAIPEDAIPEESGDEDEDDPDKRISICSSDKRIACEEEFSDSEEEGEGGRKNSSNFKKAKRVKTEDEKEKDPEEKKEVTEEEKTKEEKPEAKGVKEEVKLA
Test: HDAC1 inhibitory activity
Type: biochemical
Conditions: HDAC1 IC50 (as printed in docking Table 3), unrounded values repeated in Table 3
Answer as the number alone; pIC50 is minus log10 of concentration in mol/L.

Request - read-out pIC50 | tested on HDAC1 (Homo sapiens, UniProt Q13547) | compound Cc1nc(C)c(C(=O)Nc2cccc(C(=O)NO)c2)nc1C
6.33

Request - read-out pIC50 | tested on HDAC1 (Homo sapiens, UniProt Q13547) | compound Cc1nc(C)c(C(=O)Nc2ccc(C(=O)NN)cc2)nc1C
6.94

Request - read-out pIC50 | tested on HDAC1 (Homo sapiens, UniProt Q13547) | compound Cc1nc(C)c(C(=O)Nc2ccc(CC(=O)NN)cc2)nc1C
6.58

Request - read-out pIC50 | tested on HDAC1 (Homo sapiens, UniProt Q13547) | compound Cc1nc(C)c(C(=O)Nc2cccc(C(=O)NN)c2)nc1C
5.74

Request - read-out pIC50 | tested on HDAC1 (Homo sapiens, UniProt Q13547) | compound Cc1nc(C)c(C(=O)Nc2ccc(CC(=O)NO)cc2)nc1C
5.61

====

Biological target: HDAC2 (Homo sapiens)
Assay: HDAC2 inhibitory activity
Format: biochemical
Conditions: HDAC2 IC50 (as printed in docking Table 4), unrounded values repeated in Table 4
ENDPOINT: IC50 (nM)
The answer is to be given in nM; state only the numeric part.

Request - read-out IC50 | tested on HDAC2 (Homo sapiens) | compound Cc1nc(C)c(C(=O)Nc2cccc(C(=O)NN)c2)nc1C
113

Request - read-out IC50 | tested on HDAC2 (Homo sapiens) | compound Cc1nc(C)c(C(=O)Nc2ccc(C(=O)NN)cc2)nc1C
53.7

Request - read-out IC50 | tested on HDAC2 (Homo sapiens) | compound Cc1nc(C)c(C(=O)Nc2ccc(CC(=O)NO)cc2)nc1C
132

Request - read-out IC50 | tested on HDAC2 (Homo sapiens) | compound Cc1nc(C)c(C(=O)Nc2cccc(C(=O)NO)c2)nc1C
169

Request - read-out IC50 | tested on HDAC2 (Homo sapiens) | compound Cc1nc(C)c(C(=O)Nc2ccc(CC(=O)NN)cc2)nc1C
205

====

Biological target: HDAC1 (Homo sapiens, UniProt Q13547)
Assay: HDAC1 inhibitory activity
Type: biochemical
Conditions: IC50 HDAC1, mean ± S.E. of three independent experiments
Assign IC50 to each entry below.
The answer is to be given in nM; state only the numeric part.

Request - read-out IC50 | tested on HDAC1 (Homo sapiens, UniProt Q13547) | compound Cc1nc(C)c(C(=O)Nc2ccc(C(=O)NN)cc2)nc1C [Compound 7a]
114

Request - read-out IC50 | tested on HDAC1 (Homo sapiens, UniProt Q13547) | compound Cc1nc(C)c(C(=O)Nc2cccc(C(=O)NN)c2)nc1C [Compound 8b]
1800

Request - read-out IC50 | tested on HDAC1 (Homo sapiens, UniProt Q13547) | compound Cc1nc(C)c(C(=O)Nc2ccc(CC(=O)NN)cc2)nc1C [Compound 7c]
264

Request - read-out IC50 | tested on HDAC1 (Homo sapiens, UniProt Q13547) | compound Cc1nc(C)c(C(=O)Nc2ccc(CC(=O)NO)cc2)nc1C [Compound 7b]
2430

====

Assign IC50 to each entry below.
Target: HDAC2 (Homo sapiens, UniProt Q92769)
Sequence (Q92769 whole entry): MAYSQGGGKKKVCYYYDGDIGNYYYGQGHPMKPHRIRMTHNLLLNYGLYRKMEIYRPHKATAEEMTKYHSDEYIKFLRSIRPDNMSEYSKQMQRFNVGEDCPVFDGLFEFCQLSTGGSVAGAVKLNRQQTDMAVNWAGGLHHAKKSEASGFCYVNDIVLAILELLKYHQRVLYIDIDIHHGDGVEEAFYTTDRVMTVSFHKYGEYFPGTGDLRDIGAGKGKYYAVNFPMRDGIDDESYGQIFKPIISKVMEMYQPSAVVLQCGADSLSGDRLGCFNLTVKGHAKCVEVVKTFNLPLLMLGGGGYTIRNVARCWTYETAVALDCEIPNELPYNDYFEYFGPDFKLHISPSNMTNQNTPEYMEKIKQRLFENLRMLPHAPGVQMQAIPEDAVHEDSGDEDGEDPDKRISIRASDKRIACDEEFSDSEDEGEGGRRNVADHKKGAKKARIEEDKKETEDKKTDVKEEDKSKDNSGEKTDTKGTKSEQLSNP
Assay: HDAC2 inhibitory activity
Type: biochemical
Settings: IC50 HDAC2, mean ± S.E. of three independent experiments
The answer is to be given in nM; state only the numeric part.

Quick check: IC50 of Cc1nc(C)c(C(=O)Nc2ccc(CC(=O)NN)cc2)nc1C ?
205

Quick check: IC50 of Cc1nc(C)c(C(=O)Nc2cccc(C(=O)NN)c2)nc1C ?
113

Quick check: IC50 of Cc1nc(C)c(C(=O)Nc2ccc(CC(=O)NO)cc2)nc1C ?
132

Quick check: IC50 of Cc1nc(C)c(C(=O)Nc2cccc(C(=O)NO)c2)nc1C ?
169

Quick check: IC50 of Cc1nc(C)c(C(=O)Nc2ccc(C(=O)NN)cc2)nc1C ?
53.7
